- Test system: human GLP-1 receptor (human, UniProt P43220 24-463)
- Test: cell-based or functional assay
Endpoint name: GLP-1 activity (EC50, pM); CRE luciferase reporter
Field format: number, assumed pM, no unit text.

INSERT INTO results (binder, measured_number) VALUES
  ('Compound 70 (ligand, Moiety B (HOOC-(CH2)20-CO-gGlu-2XADO-EDA-CO-CH2) on 51C and 219C of fusion polypeptide) HGEGTFTSDVSSYLEEQAAKEFIAWLVKGGGGGGGSGGGGSGGGGSGGGGCHPIPDSSPLLQFGGQVRQRYLYTDDAQQTEAHLEIREDGTVGGAADQSPESLLQLKALKPGVIQILGVKTSRFLCQRPDGALYGSLHFDPEACSFRELLLEDGYNVYQSEAHGLPLHLPGQKSPHRDPAPRGPARFLPLPGLPPALPEPPGILAPQPPDVGSSDPLSC', 24.8);

Turning to the following binder.
Q) Any idea what GLP-1 activity (EC50, pM); CRE luciferase reporter was measured for Compound 19 (ligand, Moiety A (HOOC-(CH2)16-CO-gGlu-2XADO) on 51K and 222K of fusion polypeptide) HGEGTFTSDVSSYLEEQAAREFIAWLVRGGGGGGGSGGGGSGGGGSGGGGKHPIPDSSPLLQFGGQVRQRYLYTDDAQQTEAHLEIREDGTVGGAADQSPESLLQLRALRPGVIQILGVRTSRFLCQRPDGALYGSLHFDPEACSFRELLLEDGYNVYQSEAHGLPLHLPGQRSPHRDPAPRGPARFLPLPGLPPALPEPPGILAPQPPDVGSSDPLSLVGKSQGRSPSYES ?
A) 20.3
